Reported inhibition at 1 µM is given for each of the following compounds.
Target: Recombinant full-length human EP (Enteropeptidase) (Homo sapiens)
Construct: Recombinant full-length human EP (PeproTech, Cat #450-48C); purchased PeproTech 450-48C
Experiment: In vitro inhibition potencies against Enteropeptidase (EP), fluorescent peptide GDDDDK-naphthylamine substrate
Assay type: biochemical
Settings: compound 1 μM, 300 μM substrate, 1.25 nM EP
Give the quantity in %, number only.

input: Consider the compound shown here: N=C(N)Nc1ccc(C(=O)Oc2ccc(C3OC(=O)NC3=O)n3ncnc23)cc1 (stereo not drawn) [Compound 17] What is its recorded inhibition at 1 µM?
output: 101

input: Fill in: inhibition at 1 µM of CNC(=N)Nc1ccc(C(=O)Oc2ccc(CC(=O)O)n3ncnc23)cc1 [Compound 34] is ___
output: 80.1

input: State the recorded inhibition at 1 µM for this entry: CC(=N)Nc1ccc(C(=O)Oc2ccc(CC(=O)O)n3ncnc23)cc1 [Compound 37]
output: 99.6

====

Reported inhibition at 10 µM values for the following molecules.
Molecular target: Recombinant full-length human EP (Enteropeptidase) (Homo sapiens)
Construct: Recombinant full-length human EP (PeproTech, Cat #450-48C); purchased PeproTech 450-48C
Test: In vitro inhibition potencies against Enteropeptidase (EP), fluorescent peptide GDDDDK-naphthylamine substrate
Assay type: biochemical
Conditions: compound 10 μM, 300 μM substrate, 1.25 nM EP
Field: value (include unit after the number)

Please review the entries below; each comes with its answer.
chemical_structure=N=C(N)Nc1ccc(C(=O)Oc2ccc(CC(=O)O)n3ncnc23)cc1 result=100%
chemical_structure=N=C(N)Nc1ccc(C(=O)Oc2ccc(CC(=O)O)n3ncnc23)c2ccoc12 result=100%
chemical_structure=C#CCOCC#Cc1cc(NC(=N)N)ccc1C(=O)Oc1ccc(CC(=O)O)n2ncnc12 result=99.9%
chemical_structure=N=C(N)Nc1ccc(C(=O)Oc2ccc(CCC(=O)O)n3ccnc23)cc1 result=100%
chemical_structure=N=C(N)Nc1ccc(C(=O)Oc2ccc(CC(=O)O)n3ccnc23)cc1 result=100%
chemical_structure=CNC(=N)Nc1ccc(C(=O)Oc2ccc(CC(=O)O)n3ncnc23)cc1 result=97.9%
chemical_structure=CN(C(=N)N)c1ccc(C(=O)Oc2ccc(CC(=O)O)n3ncnc23)cc1 result=99.3%
chemical_structure=N=C(NN)c1ccc(C(=O)Oc2ccc(CC(=O)O)n3ncnc23)cc1 result=51.8%
chemical_structure=N=C(N)Nc1ccc(C(=O)Oc2cc(CCC(=O)O)cn3ncnc23)cc1 result=101%
chemical_structure=CC(=N)Nc1ccc(C(=O)Oc2ccc(CC(=O)O)n3ncnc23)cc1 result=100%

input: Consider the molecule "N=C(N)Nc1ccc(C(=O)Oc2ccc(CC(=O)NCC(=O)O)n3ncnc23)cc1" and give its measured inhibition at 10 µM.
output: 100%

input: Could you tell me which inhibition at 10 µM is on file for "Cc1cc(C(=O)Oc2ccc(CC(=O)O)n3ncnc23)ccc1NC(=N)N" ?
output: 36.7%

input: What measured inhibition at 10 µM goes with "N=C(N)Nc1ccc(C(=O)Oc2ccc(CC(=O)O)n3ncnc23)c(Cl)c1" ?
output: 100%

input: I'd like to know its inhibition at 10 µM. The molecule in question is "C/C(=N\O)Nc1ccc(C(=O)Oc2ccc(CC(=O)O)n3ncnc23)cc1"
output: -10.8%

input: Name the reported inhibition at 10 µM value associated with the molecule "N=C(N)Nc1ccc(C(=O)Oc2ccc(CC(=O)O)n3ncnc23)c(F)c1"
output: 100%

input: // query inhibition at 10 µM value for entry "COc1cc(C(=O)Oc2ccc(CC(=O)O)n3ncnc23)ccc1NC(=N)N"
output: 101%

input: Look at this molecule and give its reported inhibition at 10 µM. "N=C(N)Nc1ccc(C(=O)Oc2ccc(CC(=O)O)n3ncnc23)cc1Cl"
output: 101%

input: What does the record list as inhibition at 10 µM for "CONC(=N)c1ccc(C(=O)Oc2ccc(CC(=O)O)n3ncnc23)cc1" ?
output: 34%

====

Biological target: Recombinant full-length human EP (Enteropeptidase) (Homo sapiens, UniProt P98073)
Construct: Recombinant full-length human EP (PeproTech, Cat #450-48C); purchased PeproTech 450-48C
Sequence (P98073 whole entry): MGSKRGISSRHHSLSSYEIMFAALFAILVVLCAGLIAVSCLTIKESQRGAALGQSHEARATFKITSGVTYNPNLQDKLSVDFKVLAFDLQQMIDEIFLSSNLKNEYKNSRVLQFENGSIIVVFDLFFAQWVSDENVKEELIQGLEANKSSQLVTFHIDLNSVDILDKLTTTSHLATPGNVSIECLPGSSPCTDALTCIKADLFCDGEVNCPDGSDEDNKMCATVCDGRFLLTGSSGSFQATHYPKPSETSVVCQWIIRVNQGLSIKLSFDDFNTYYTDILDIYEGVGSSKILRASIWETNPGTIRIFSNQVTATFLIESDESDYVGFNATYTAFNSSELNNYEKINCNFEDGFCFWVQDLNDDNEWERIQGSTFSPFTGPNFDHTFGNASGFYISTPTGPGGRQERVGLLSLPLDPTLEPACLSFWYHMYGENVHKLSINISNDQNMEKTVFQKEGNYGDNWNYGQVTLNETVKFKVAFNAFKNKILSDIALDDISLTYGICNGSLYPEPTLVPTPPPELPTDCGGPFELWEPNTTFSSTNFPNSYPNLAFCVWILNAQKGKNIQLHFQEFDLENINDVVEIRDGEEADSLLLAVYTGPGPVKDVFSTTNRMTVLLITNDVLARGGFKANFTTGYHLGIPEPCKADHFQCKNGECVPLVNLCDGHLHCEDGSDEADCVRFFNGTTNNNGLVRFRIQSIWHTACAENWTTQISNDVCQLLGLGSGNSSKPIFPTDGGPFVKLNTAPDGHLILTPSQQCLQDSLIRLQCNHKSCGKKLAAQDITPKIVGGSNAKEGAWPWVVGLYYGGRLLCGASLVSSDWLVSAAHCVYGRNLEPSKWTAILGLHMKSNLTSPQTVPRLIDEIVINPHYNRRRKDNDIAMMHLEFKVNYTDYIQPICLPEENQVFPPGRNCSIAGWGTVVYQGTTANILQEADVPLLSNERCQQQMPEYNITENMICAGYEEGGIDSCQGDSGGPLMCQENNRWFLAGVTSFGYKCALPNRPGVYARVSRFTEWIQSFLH
Experiment: In vitro inhibition potencies against Enteropeptidase (EP), fluorescent peptide GDDDDK-naphthylamine substrate
Type: biochemical
Details: 12-point dose-dependence, time-dependent inhibition, 300 μM substrate, 1.25 nM EP, duplicate dilutions, read-out: kinact/KI^App
Outcome: fulfilled for kinact/KI of at least 70000 M⁻¹ s⁻¹; not fulfilled for anything lower.

chemical_structure=N=C(N)Nc1ccc(C(=O)Oc2ccc(CC(=O)O)n3ncnc23)cc1 measured_target="Recombinant full-length human EP (Enteropeptidase) (Homo sapiens, UniProt P98073)" assigned_category=fulfilled
chemical_structure=N=C(N)Nc1ccc(C(=O)Oc2ccc(CC(=O)O)n3ccnc23)cc1 measured_target="Recombinant full-length human EP (Enteropeptidase) (Homo sapiens, UniProt P98073)" assigned_category=fulfilled
chemical_structure=C#CCOCC#Cc1cc(NC(=N)N)ccc1C(=O)Oc1ccc(CC(=O)O)n2ncnc12 measured_target="Recombinant full-length human EP (Enteropeptidase) (Homo sapiens, UniProt P98073)" assigned_category="not fulfilled"
chemical_structure=C#CCOCCOCC#Cc1cc(NC(=N)N)ccc1C(=O)Oc1ccc(CC(=O)O)n2ncnc12 measured_target="Recombinant full-length human EP (Enteropeptidase) (Homo sapiens, UniProt P98073)" assigned_category="not fulfilled"
chemical_structure=N=C(N)Nc1ccc(C(=O)Oc2ccc(CC(=O)O)n3ncnc23)cc1F measured_target="Recombinant full-length human EP (Enteropeptidase) (Homo sapiens, UniProt P98073)" assigned_category=fulfilled

input: State whether the measured kinact/KI reaches 70000 M⁻¹ s⁻¹, counting equality as reaching it, for "CS(=O)(=O)NC(=O)Cc1ccc(OC(=O)c2ccc(NC(=N)N)cc2)c2ncnn12"
output: fulfilled

input: Check the entry "N=C(N)Nc1ccc(C(=O)Oc2ccc(CCC(=O)O)n3ccnc23)cc1" : does kinact/KI equal or exceed 70000 M⁻¹ s⁻¹?
output: not fulfilled

====

Target: Recombinant full-length human EP (Enteropeptidase) (Homo sapiens, UniProt P98073)
Construct: Recombinant full-length human EP (PeproTech, Cat #450-48C); purchased PeproTech 450-48C
Assay: In vitro inhibition potencies against Enteropeptidase (EP), fluorescent peptide GDDDDK-naphthylamine substrate
Type: biochemical
Conditions: compound 0.1 μM, 300 μM substrate, 1.25 nM EP
Rule: inhibition at 0.1 µM of 20% or more gives True; anything lower gives False.

Reference set, count: 5
chemical_structure=N=C(NN)c1ccc(C(=O)Oc2ccc(CC(=O)O)n3ncnc23)cc1 assigned_category=False
chemical_structure=N=C(N)Nc1ccc(C(=O)Oc2ccc(CC(=O)N(CC(=O)O)CC(=O)O)n3ncnc23)cc1 assigned_category=True
chemical_structure=CONC(=N)c1ccc(C(=O)Oc2ccc(CC(=O)O)n3ncnc23)cc1 assigned_category=False
chemical_structure=N=C(N)Nc1ccc(C(=O)Oc2ccc(CC(=O)O)n3ncnc23)cc1O assigned_category=True
chemical_structure=N=C(N)Nc1ccc(C(=O)Oc2ccc(CCC(=O)O)n3ncnc23)cc1 assigned_category=True

input: Determine whether this compound has inhibition at 0.1 µM no lower than 20%: "CNC(=N)Nc1ccc(C(=O)Oc2ccc(CC(=O)O)n3ncnc23)cc1"
output: False

input: inhibition at 0.1 µM >= 20% for "N=C(N)Nc1ccc(C(=O)Oc2ccc(CC(=O)O)n3ncnc23)c(F)c1" ?
output: True

input: Dear colleague, could you confirm whether "CS(=O)(=O)NC(=O)Cc1ccc(OC(=O)c2ccc(NC(=N)N)cc2)c2ncnn12" has inhibition at 0.1 µM at or above 20%?
output: True

====

Biological target: Bovine trypsin (Bos taurus)
Construct: purchased Sigma-Aldrich T1426
Sequence (P00760 24-246): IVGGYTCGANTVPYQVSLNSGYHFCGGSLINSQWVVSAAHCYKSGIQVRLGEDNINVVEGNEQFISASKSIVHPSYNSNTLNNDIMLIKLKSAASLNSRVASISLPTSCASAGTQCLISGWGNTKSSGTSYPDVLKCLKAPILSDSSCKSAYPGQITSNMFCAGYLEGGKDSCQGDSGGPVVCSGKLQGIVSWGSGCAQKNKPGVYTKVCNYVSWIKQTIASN
Assay: Biochemical Assay of Trypsin (T), H-D-CHA-AR-AMC substrate
Conditions: 12-point dose-dependence, time-dependent inhibition, 15 μM substrate, 0.025 nM Trypsin, duplicate dilutions, read-out: Kinact/KI^App
molecules and their reported kinact/KI
A complete answer gives the number and then names the unit.

Field: example entries. Status: answers known.
chemical_structure=N=C(N)Nc1ccc(C(=O)Oc2ccc(CC(=O)O)n3ccnc23)cc1 result="111000 M⁻¹ s⁻¹"
chemical_structure=N=C(N)Nc1ccc(C(=O)Oc2ccc(CC(=O)O)n3ncnc23)cc1 result="159000 M⁻¹ s⁻¹"
chemical_structure=C#CCOCC#Cc1cc(NC(=N)N)ccc1C(=O)Oc1ccc(CC(=O)O)n2ncnc12 result="40100 M⁻¹ s⁻¹"

input: Query (molecule): "C#CCOCCOCC#Cc1cc(NC(=N)N)ccc1C(=O)Oc1ccc(CC(=O)O)n2ncnc12" ; field requested: kinact/KI
output: 59400 M⁻¹ s⁻¹

input: Quick one: kinact/KI of "CS(=O)(=O)NC(=O)Cc1ccc(OC(=O)c2ccc(NC(=N)N)cc2)c2ncnn12" ?
output: 163000 M⁻¹ s⁻¹

input: What does the data say about its kinact/KI? Entry: "N=C(N)Nc1ccc(C(=O)Oc2ccc(CC(=O)O)n3ncnc23)cc1F"
output: 69700 M⁻¹ s⁻¹
